protein stability index listing for selected variants.
B1: ZNF263 (parent)
chain: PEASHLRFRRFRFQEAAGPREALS

- Variants of: B1
- experiment_notes: protein stability index of a GFP-peptide fusion (GPS, HEK-293T) (PSI 1-6); higher = more stable;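 note: lentivirally expressed fusions sorted by FACS into six bins by GFP to DsRed ratio, PSI derived from sequencing read proportions per bin multiplied by bin number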
- experimental_parameters: c terminus: a fixed tail appended
Response field accepts a number only; no unit should be typed.

Please review the following examples before continuing.
* R12P | 3.39
* A3P | 2.87
* S4D | 2.92

// switching to the query variant
Request: Give its protein stability index value. Item: F8S
Result: 3.21
